- System: IGROV1 ovarian
- Procedure Text: NCI tumour cell line growth inhibition, 48 h
Form field: TGI (one value per entry).

{"columns": ["Compound", "TGI"],
 "data": [
  ["CC(=O)CNC(=O)OC(C)(C)C", "> 100 µM"],
  ["NC(=O)C(=O)N/N=C(\\CC1(O)C(=O)Nc2ccccc21)c1ccc2ccccc2c1 (stereo unspecified)", "> 100 µM"],
  ["Brc1ccc2c(-c3csc(-c4c[nH]c5cc(Br)ccc45)n3)c[nH]c2c1", "> 75.2 µM"],
  ["CCC(=O)Oc1c2ccsc2c(OC(=O)CC)c2ccsc12", "3.65 µM"],
  ["O=C(/C=C/c1c(O)ccc2ccccc12)c1cccc(O)c1", "> 100 µM"],
  ["O=[N+]([O-])c1ccc(NC(=S)N=Nc2c(O)[nH]c3ccc(Br)cc23)cc1", "18.3 µM"],
  ["[Cl-].[Dy+3].[O-]/N=C(\\c1ccccc1)c1ccccn1.[O-]/N=C(\\c1ccccc1)c1ccccn1.[O-]/N=C(\\c1ccccc1)c1ccccn1", "> 100 µM"],
  ["COC(=O)/C=C/c1cc(OC)c(OC)c(OC)c1", "> 100 µM"],
  ["CCOc1cc2c(Cl)ncnc2c(OCC)c1OCC", "3.53 µM"],
  ["O=C1C=C(c2ccccc2)O/C1=C/C(=O)c1ccc(Cl)cc1", "35.9 µM"],
  ["CCCn1cnc2c(SCc3ccccc3Cl)nc(N)nc21", "> 100 µM"]
]}
